# SYSTEM: T1, CGH-1_(248–420) K277E (C. elegans, UniProt Q95YF3 248-420, K277E)
# T1 construct: Mutant of m1 made with the MutanBEST kit; source: E. coli Gold (DE3), purified (Ni-chelating resin, SEC Superdex 75)
# T1 sequence (looked up): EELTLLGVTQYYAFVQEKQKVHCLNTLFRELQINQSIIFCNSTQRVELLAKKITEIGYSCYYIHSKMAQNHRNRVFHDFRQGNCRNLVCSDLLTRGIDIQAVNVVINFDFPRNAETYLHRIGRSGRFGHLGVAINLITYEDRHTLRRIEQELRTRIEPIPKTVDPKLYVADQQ
# EXPERIMENT: ITC; ligand (peptide or CAR-1 fragment, 0.5 mM) injected into CGH-1_(248-420) or mutant (0.05 mM) in the cell; 20 °C; Buffer B (20 mM Tris-HCl pH 7.5, 150 mM NaCl); one-binding-site model
# CONDITION_LABEL: both partners purified
READOUT_TYPE: pKd
Conceptually, pKd converts a concentration in mol/L into minus its log10.

Item SDEDHNIFDDEFDAANDETFGGGLDNIGENAELENYAT (PATR-1 (Pat1 ortholog), C. elegans, residues 30-67; Printed with free NH2 and COOH ends; also called PATR1_30-67^WT; CePATR-1 peptide; source: synthetic peptide (GL Biochem, Shanghai)) [PATR-1 peptide (CePATR-1_(30–67))] has what recorded pKd? 5.08
